B1: wild-type recombinant mouse MASP-3 fused with PA-tag (WT rmMASP-3-PA) [mouse] / mouse ficolin-A [mouse (endogenous in serum of C57BL/6J mice)] (parent)
chain 1: HTVELNEMFGQIQSPGYPDSYPSDSEVTWNITVPEGFRIKLYFMHFNLESSYLCEYDYVKVETEDQVLATFCGRETTDTEQTPGQEVVLSPGTFMSVTFRSDFSNEERFTGFDAHYMAVDVDECKEREDEELSCDHYCHNYIGGYYCSCRFGYILHTDNRTCRVECSGNLFTQRTGTITSPDYPNPYPKSSECSYTIDLEEGFMVSLQFEDIFDIEDHPEVPCPYDYIKIKAGSKVWGPFCGEKSPEPISTQTHSVQILFRSDNSGENRGWRLSYRAAGNECPKLQPPVYGKIEPSQAVYSFKDQVLVSCDTGYKVLKDNEVMDTFQIECLKDGAWSNKIPTCKIVDCGAPAGLKHGLVTFSTRNNLTTYKSEIRYSCQQPYYKMLHNTTGVYTCSAHGTWTNEVLKRSLPTCLPVCGQPSRALPNLVKRIIGGRNAELGLFPWQALIVVEDTSRVPNDKWFGSGALLSESWILTAAHVLRSQRRDNTVIPVSKEHVTVYLGLHDVRDKSGAVNSSAARVILHPDFNIQNYNHDIALVQLQKPVPLGAHVMPICLPRPEPEGPAPHMLGLVAGWGISNPNVTVDEIILSGTRTLSDVLQYVKLPVVSHAECKASYESRSGNYSVTENMFCAGYYEGGKDTCLGDSGGAFVIFDEMSQHWVAQGLVSWGGPEECGSKQVYGVYTKVSNYVDWLWEEMNSPRAVRDLQVER
chain 2: SQALGQERGACPDVKVVGLGAQDKVVVIQSCPGFPGPPGPKGEPGSPAGRGERGFQGSPGKMGPAGSKGEPGTMGPPGVKGEKGDTGAAPSLGEKELGDTLCQRGPRSCKDLLTRGIFLTGWYTIHLPDCRPLTVLCDMDVDGGGWTVFQRRVDGSIDFFRDWDSYKRGFGNLGTEFWLGNDYLHLLTANGNQELRVDLQDFQGKGSYAKYSSFQVSEEQEKYKLTLGQFLEGTAGDSLTKHNNMSFTTHDQDNDANSMNCAALFHGAWWYHNCHQSNLNGRYLSGSHESYADGINWGTGQGHHYSYKVAEMKIRAS

Variants of: B1
Procedure text: immunoprecipitation with anti-PA tag antibody beads from mouse serum, Western blot band intensity
Condition label: with mouse ficolin-A [mouse (endogenous in serum of C57BL/6J mice)]; TBS containing 7 mM MgCl2 and 5 mM CaCl2 (TBS/Mg/Ca); parent: 1; read off a plot
Measurement name: ratio to parent

A = chain 1 Y225A
B = chain 1 D102A
I would appreciate it if you could say which entry, A or B , has the lower ratio to parent value. Select an item and report its label.
B

I = chain 1 H218A
II = chain 1 E49A
I or II : whose ratio to parent is greater? Response format: the label of the selected entry.
II
(II: 0.09, I: 0.04)
